The entries below come with measured koff values attached.
system tested: T1, huIL-18Rβ-HisAvi (human, UniProt O95256 20-356, biotinylated in the Octet blocking assay)
T1 construct: Soluble analyte in all SPR runs; captured on streptavidin sensors in the Octet assay; also called human IL-18Rβ; human IL-18Rβ-Avi-His
T1 sequence: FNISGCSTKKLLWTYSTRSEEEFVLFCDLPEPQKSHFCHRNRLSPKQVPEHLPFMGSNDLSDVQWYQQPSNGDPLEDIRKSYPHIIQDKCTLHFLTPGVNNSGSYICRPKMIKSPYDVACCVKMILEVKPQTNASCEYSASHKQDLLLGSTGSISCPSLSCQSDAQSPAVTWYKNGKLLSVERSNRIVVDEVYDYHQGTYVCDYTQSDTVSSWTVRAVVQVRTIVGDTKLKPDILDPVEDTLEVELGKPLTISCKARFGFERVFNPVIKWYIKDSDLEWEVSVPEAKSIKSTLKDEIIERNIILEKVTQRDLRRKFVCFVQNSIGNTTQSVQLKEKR
protocol summary: SPR T200, mAb on anti-hFc, 37C, pH 6
// return numeric value only (unit: s⁻¹, not printed)

Solved cases (4 shown):
>>> endpoint_result("P20-V2 (antibody, human IgG1, kappa, V domains shown, Variant of P20) VH: QVQLQESGPGLVKPSETLSLTCTVSGGSINNYYWSWIRQPPGKGLEWIGYIFYSGTTNYNPSLKSRVTISVDTSKNQFSLKLSSVTAADTAVYYCARDVGIAARNSYYYVMDVWGQGTTVTVSS VL: AIQLTQSPSSLSASVGDRVTITCRASQGISSALAWYQQKPGKAPKFLIYEGSSLESGVPSRFSGSGSGTDFTLTISSLQPEDFATYYCQQFNSYPITFGQGTRLEIKR")
0.00013
>>> endpoint_result("P20-V3 (antibody, human IgG1, kappa, V domains shown, Variant of P20) VH: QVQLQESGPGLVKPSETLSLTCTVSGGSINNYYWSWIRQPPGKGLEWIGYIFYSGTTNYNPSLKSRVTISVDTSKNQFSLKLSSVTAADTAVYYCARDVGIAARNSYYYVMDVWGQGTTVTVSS VL: AIQLTQSPSSLSASVGDRVTITCRASQGISSALAWYQQKPGKAPKFLIYGASSLESGVPSRFSGSGSGTDFTLTISSLQPEDFATYYCQQFNSYPITFGQGTRLEIKR")
0.00014
>>> endpoint_result("P20-V1 (antibody, human IgG1, kappa, V domains shown, Variant of P20) VH: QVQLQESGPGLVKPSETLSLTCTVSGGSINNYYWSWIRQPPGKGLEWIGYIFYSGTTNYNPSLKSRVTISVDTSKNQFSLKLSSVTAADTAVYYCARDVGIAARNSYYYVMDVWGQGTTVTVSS VL: AIQLTQSPSSLSASVGDRVTITCRASQGISSALAWYQQKPGKAPKFLIYEASSLESGVPSRFSGSGSGTDFTLTISSLQPEDFATYYCQQFNSYPITFGQGTRLEIKR")
0.00015
>>> endpoint_result("P21 (antibody, human IgG1, kappa, V domains shown, Human IgG) VH: QVQLQQSGPGLVKPSETLSLTCTVSGGSISNYYWTWIRQPPGKGLEWIGYISDSGSTNYNPSLKSRVTISVDTSKNQFSLKLSSVTAADTAVYYCARETIVVRGFYFYVMDVWGQGTTVTVSS VL: AIQLTQSPSSLSASVGDRVTITCRASQGISSALAWYQQRPGKAPKLLIYDASNWESGVPSRFSGSGSGTDFTLTISSLQPEDFATYYCQQFNSYPWTFGQGTKVEIKR")
0.00031

Next binder, please.
What does the data say about its koff? Entry: P21-V1 (antibody, human IgG1, kappa, V domains shown, Variant of P21) VH: QVQLQESGPGLVKPSETLSLTCTVSGGSISNYYWTWIRQPPGKGLEWIGYISDSGSTNYNPSLKSRVTISVDTSKNQFSLKLSSVTAADTAVYYCARETIVVRGFYFYVMDVWGQGTTVTVSS VL: AIQLTQSPSSLSASVGDRVTITCRASQGISSALAWYQQKPGKAPKLLIYEASNWESGVPSRFSGSGSGTDFTLTISSLQPEDFATYYCQQFNSYPWTFGQGTKVEIKR
0.00017

Measured values drawn from patent US20250230251A1 for this set.
